Biological target: TRPA1 receptor (Homo sapiens)
Construct: expressed in transfected cells; host or cells: HEK cell line
Experiment: cell-based
Settings: HEK293; percentage of the control (allyl isothiocyanate) calcium count; material dissolved in DMSO at 100 micromolar; HEK cells with TRPA1; direct addition; read-out: TRPA1 Direct addition
Each entry below carries its reported activation at 100 µM.

# COMPOUND, UNIT TEXT, activation at 100 µM
data = [
    ("C=CC(C)(CCC=C(C)C)OC(C)=O (centres unmarked) [Linalyl Acetate]", "%", -0.9),
    ("Oc1cc(Cl)ccc1Oc1ccc(Cl)cc1Cl [Triclosan, reference compound]", "%", 196),
    ("CC/C=C\\CCOC(=O)CCC [cis-3-Hexenyl Butyrate]", "%", -0.46),
    ("CCCCCC(=O)O [Hexanoic Acid]", "%", -0.4),
    ("COc1cccc(OC)c1O [2,6-Dimethoxyphenol]", "%", -0.24),
    ("CCOC(=O)C(C)CC (centres unmarked) [Ethyl 2-Methylbutyrate]", "%", 0.26),
    ("C=CCOC(=O)CCCCCCCC [Allyl Nonanoate]", "%", -1.87),
    ("Cc1ncsc1CCO [4-Methyl-5-Thiazoleethanol]", "%", 0.56),
    ("c1ccc2scnc2c1 [Benzothiazole]", "%", -2.29),
    ("CCCCCCCC(C)=O [Material 2-Nonanone, 2-Nonanone]", "%", 0.36),
    ("COC(=O)c1ccccc1N [Methyl Anthranilate]", "%", 69.6),
]

----------
Each entry below carries its reported TRPA1 Direct addition.
Target: TRPA1 receptor (Homo sapiens)
Construct: expressed in transfected cells; host or cells: HEK cell line
Experiment: cell-based
Conditions: percentage of the control (allyl isothiocyanate) calcium count; material dissolved in DMSO at 100 micromolar; HEK cells with TRPA1; direct addition

# COMPOUND, TRPA1 Direct addition [%]
data = [
    ("CC(=O)c1nccs1 [2-Aceylthiazole]", "−1.29"),
    ("CC(=O)CCc1ccc(O)cc1 [4-P-hydroxyphenyl-2-butanone]", 0.2),
    ("CCOC(=O)c1ccccc1N [Ethyl Anthrailate]", 39.71),
    ("CC(=O)O[C@@H]1C[C@H](C)CC[C@H]1C(C)C (racemic) [DL-Menthyl Acetate]", "−16.09"),
    ("COc1ccc(CC(C)=O)cc1 [1-(P-Methoxyphenyl)-2-Propanone]", 0.49),
]

----------
Each entry below carries its reported TRPA1 Direct addition.
Target: TRPA1 receptor (Homo sapiens)
Construct: expressed in transfected cells; host or cells: HEK cell line
Assay: cell-based
Details: percentage of the control (allyl isothiocyanate) calcium count; material dissolved in DMSO at 100 micromolar; HEK cells with TRPA1; direct addition

# COMPOUND, TRPA1 Direct addition / %
rows = [
    ("C/C(C=O)=C\\c1ccccc1 [Alpha-Methyl-Trans-Cinnamaldehyde]", 37.95),
    ("Cc1ccc(C=O)cc1 [P-Totylaldehyde]", 11.1),
    ("CC(=O)CCC1C(C)=CCCC1(C)C (stereo not drawn) [Dihydro-alpha-ionone]", 0.11),
    ("CCCCCCCCCCCC=O [Lauric Aldehyde]", 19.05),
    ("CCCCCC(C)=O [Heptanone]", "−0.04"),
    ("CC(=O)/C(C)=C/C1C(C)=CCCC1(C)C (stereo not drawn) [Gamma Methyl Ionone]", 4.96),
]

----------
Molecular target: TRPA1 receptor (Homo sapiens);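 for TRPA1 Pre-incubation: values above 100 mean more active than the control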
Construct: expressed in transfected cells; host or cells: HEK cell line
Test: cell-based
Parameters: dose or concentration left out as unconfirmed
Settings: HEK293; percentage of the control (allyl isothiocyanate) calcium count; material dissolved in DMSO at 100 micromolar; HEK cells with TRPA1; pre-incubation; read-out: TRPA1 Pre-incubation

# MOLECULE, activation [%]
measured = [
    ("CC(=O)OC1CC(C)CCC1C(C)C (stereo not drawn) [Menthyl Acetate]", 75.8),
    ("C=CCOC(=O)CCCCCCCC [Allyl Nonanoate]", 69.6),
    ("CCCCC(=O)OCC [Ethyl Valerate]", 101),
    ("CCC/C=C/C=O [trans-2-Hexenal]", 103),
    ("O=C(OCc1ccccc1)c1ccccc1 [Benzyl Benzoate]", 18.9),
    ("CCCCCCCC(=O)OCC [Ethyl Octanoate]", 87.3),
]

----------
Each entry below carries its reported activation at 100 µM.
Biological target: TRPA1 receptor (Homo sapiens, UniProt O75762)
Construct: expressed in transfected cells; host or cells: HEK cell line
Sequence (O75762 whole entry): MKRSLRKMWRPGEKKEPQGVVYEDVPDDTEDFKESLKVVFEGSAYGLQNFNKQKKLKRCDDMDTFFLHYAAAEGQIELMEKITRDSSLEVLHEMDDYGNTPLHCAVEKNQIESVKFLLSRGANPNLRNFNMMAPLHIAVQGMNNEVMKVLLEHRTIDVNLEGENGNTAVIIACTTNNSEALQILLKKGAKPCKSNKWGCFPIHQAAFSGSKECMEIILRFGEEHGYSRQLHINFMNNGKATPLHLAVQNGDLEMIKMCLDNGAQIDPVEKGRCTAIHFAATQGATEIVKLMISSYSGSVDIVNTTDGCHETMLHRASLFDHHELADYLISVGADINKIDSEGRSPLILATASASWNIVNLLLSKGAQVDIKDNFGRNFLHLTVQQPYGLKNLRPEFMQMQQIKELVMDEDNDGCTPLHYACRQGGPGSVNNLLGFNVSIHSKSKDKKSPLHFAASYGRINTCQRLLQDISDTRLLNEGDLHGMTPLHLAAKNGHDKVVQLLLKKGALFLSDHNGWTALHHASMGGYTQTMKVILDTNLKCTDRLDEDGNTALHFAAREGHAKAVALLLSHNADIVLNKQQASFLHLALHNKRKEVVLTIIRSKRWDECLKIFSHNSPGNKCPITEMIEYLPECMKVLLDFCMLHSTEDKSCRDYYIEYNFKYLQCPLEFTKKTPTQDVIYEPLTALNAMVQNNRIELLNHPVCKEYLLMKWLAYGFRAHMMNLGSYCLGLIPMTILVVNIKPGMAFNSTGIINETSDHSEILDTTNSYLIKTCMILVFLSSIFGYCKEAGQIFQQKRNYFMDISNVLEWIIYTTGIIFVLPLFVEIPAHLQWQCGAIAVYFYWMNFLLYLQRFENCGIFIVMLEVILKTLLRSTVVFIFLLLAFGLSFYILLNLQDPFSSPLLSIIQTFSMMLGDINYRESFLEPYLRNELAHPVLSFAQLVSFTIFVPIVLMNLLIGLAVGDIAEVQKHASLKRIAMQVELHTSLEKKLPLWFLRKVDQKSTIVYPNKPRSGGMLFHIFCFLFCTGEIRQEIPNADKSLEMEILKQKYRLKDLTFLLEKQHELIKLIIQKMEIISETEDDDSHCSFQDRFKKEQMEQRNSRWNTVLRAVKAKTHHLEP
Assay: cell-based
Conditions: HEK293; percentage of the control (allyl isothiocyanate) calcium count; material dissolved in DMSO at 100 micromolar; HEK cells with TRPA1; direct addition; read-out: TRPA1 Direct addition
Where a name gives a salt, the structure may show the parent alone.

# MOLECULE, activation at 100 µM (%)
records = [
    ("O=Cc1ccco1 [Furfural]", -0.15),
    ("CC1OCCC1=O (stereo not drawn) [2-Methyltetrahydrofuran-3-one]", -1.5),
    ("CCCCCC/C=C\\CO [cis-2-nonen-1-ol]", -1.09),
    ("CCc1cnccn1 [2-Ethylpyrazine]", -1.56),
    ("CC/C=C\\CCOC(=O)C/C=C\\CC [cis-3-Hexenyl cis-3-Hexenoate, [(Z)-hex-3-enyl] (Z)-hex-3-enoate]", -1.04),
    ("CCCCCC(=O)OCC [Ethyl Hexanoate]", 0.41),
    ("O=CC=Cc1ccccc1 [Cinnamaldehyde]", 114),
    ("CCOC(=O)CC(O)(CC(=O)OCC)C(=O)OCC [Triethyl Citrate]", -9.43),
    ("CCCC(=O)OC/C=C(\\C)CCC=C(C)C [Geranyl Butyrate]", 0.12),
    ("CCCCC(O)CC (stereo not drawn) [Material 3-Heptanol, 3-Heptanol]", -1.06),
    ("CCCC(C)=O [Material 2-Pentanone, 2-Pentanone]", 0.73),
    ("CCCCCCCO [Heptyl Alcohol]", 0.59),
    ("CC(=O)OC(C)(C)Cc1ccccc1 [Alpha, Alpha Dimethylphenethyl Acetate]", -3.2),
    ("O=C(OCCc1ccccc1)c1ccccc1O [Phenethyl salicylate]", 7.36),
    ("CC(=O)OCC(C)C [Isobutyl Acetate]", -0.23),
    ("CCCCCOC(=O)CCC [Amyl Butyrate]", -2.64),
    ("COc1cc(C=O)ccc1OC(=O)C(C)C [Vanillin Isobutyrate]", 118),
    ("Cn1cccc1C=O [1-Methylpyrrole-2-carboxaldehyde]", -3.47),
    ("CC(=O)OCCc1scnc1C [4-Methyl-5-Thiazoleethanol Acetate]", 0.62),
    ("CCCC/C=C/C=O [trans-2-Heptenal]", 95.9),
    ("CCCCCCOC(C)=O [Hexyl Acetate]", -0.01),
    ("OCc1ccccc1 [Benzyl Alcohol]", 21.4),
    ("COc1ccccc1O [Guaiacol]", -0.08),
    ("CC1=CCC(C(C)C)=CC1 [Gamma-Terpinene]", 0.21),
]

----------
Target: TRPA1 receptor (Homo sapiens, UniProt O75762);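 for TRPA1 Pre-incubation: values above 100 mean more active than the control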
Construct: expressed in transfected cells; host or cells: HEK cell line
Test: cell-based
Set-up: dose or concentration left out as unconfirmed
Settings: HEK293; percentage of the control (allyl isothiocyanate) calcium count; material dissolved in DMSO at 100 micromolar; HEK cells with TRPA1; pre-incubation; read-out: TRPA1 Pre-incubation
Each entry below carries its reported activation.
ENDPOINT: activation (%)

# COMPOUND, RECORDED RESULT
measured = [
    ("CC1=CCC(C(C)C)=CC1", 61.5),
    ("CCC(C)COC(C)=O (stereo not drawn) [2-Methylbutyl Acetate]", 60.3),
    ("CCCC(=O)OC/C=C(\\C)CCC=C(C)C [Geranyl Butyrate]", 61.5),
]

----------
Target: TRPA1 receptor (Homo sapiens)
Construct: expressed in transfected cells; host or cells: HEK cell line
Assay: cell-based
Conditions: percentage of the control (allyl isothiocyanate) calcium count; material dissolved in DMSO at 100 micromolar; HEK cells with TRPA1; direct addition
Each entry below carries its reported TRPA1 Direct addition.
ENDPOINT: TRPA1 Direct addition

# MOLECULE, RECORDED RESULT
rows = [
    ("CC1=C(/C=C/C(C)O)C(C)(C)CCC1 (stereo not drawn) [Beta-ionol]", "−0.01%"),
    ("COc1ccc(C(C)=O)cc1 [Acetanisole]", "0.15%"),
    ("CCCC/C=C/C=C/C=O [trans,trans,-2,4-Nonadienal]", "112.15%"),
]

----------
Biological target: TRPA1 receptor (Homo sapiens, UniProt O75762)
Construct: expressed in transfected cells; host or cells: HEK cell line
Assay: cell-based
Details: restated in Table III from Table II
Each entry below carries its reported % of AITC Receptor Activation (from Data in Table II).
ENDPOINT: % of AITC Receptor Activation (from Data in Table II) (%)

# COMPOUND, TARGET ENTITY, RECORDED RESULT
records = [
    ("CCC(C)/C=C(\\C=O)c1ccccc1 (stereo not shown)", "TRPA1 receptor (Homo sapiens, UniProt O75762)", 132),
    ("COc1cc(C=O)ccc1OC(=O)C(C)C [Vanillin Isobutyrate]", "TRPA1 receptor (Homo sapiens, UniProt O75762)", 118),
    ("C=CCN=C=S [Allyl Isothiocyanate, reference compound]", "TRPA1 receptor (Homo sapiens, UniProt O75762)", 100),
    ("O=C(c1ccccc1)c1ccccc1", "TRPA1 receptor (Homo sapiens, UniProt O75762)", 138),
]

// data source = patent US9937115B2
